Measured values drawn from paper PMC7664216 for this set.

assayed_target: SaveOBP9 (Sitobion avenae, UniProt A0A1I9ZLB6)
Sequence (A0A1I9ZLB6 entry or part of it): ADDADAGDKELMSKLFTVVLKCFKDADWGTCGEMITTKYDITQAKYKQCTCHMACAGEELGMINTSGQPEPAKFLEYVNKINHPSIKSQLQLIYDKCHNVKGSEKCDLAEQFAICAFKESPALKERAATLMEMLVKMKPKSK
assay_comment: Fluorescence competitive ligand binding assay with probe 1-NPN
condition_info: pH 7.4; 1-NPN probe; read-out: IC50
outcome_measure: IC50
State the value, then name its unit.

INSERT INTO results (compound, assay_value) VALUES
  ('CCCCCCCCCC=O [Decanal]', '9.95 µM'),
  ('CCCCCCCCCCCCCC [Tetradecane]', '7.96 µM'),
  ('C=C(C)[C@@H]1CC=C(C)CC1 [S-(−)-Limonene]', '32.1 µM'),
  ('Cc1cc(C(C)(C)C)c(O)c(C(C)(C)C)c1 [Butylated Hydroxytoluene]', '45.6 µM'),
  ('CCCCCCCC=O [Octanal]', '8.79 µM');

What measured IC50 goes with CCCCC(CC)CO (stereo not drawn) [2-Ethyl-1-hexanol] ?
11.2 µM
